Data origin, for the record: the supplement of paper PMC10567573

B1: TPRG1 (parent)
chain: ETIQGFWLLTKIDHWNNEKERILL

Variants of: B1
Test: protein stability index of a GFP-peptide fusion (GPS, HEK-293T) (PSI 1-6); higher = more stable;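 further: lentivirally expressed fusions sorted by FACS into six bins by GFP to DsRed ratio, PSI derived from sequencing read proportions per bin multiplied by bin number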
Details: c terminus: a fixed tail appended
Where protein stability index equals or exceeds 3, the correct label is yes; where it does not, the label is no.

Given the entry `I3S` , answer whether its protein stability index meets or surpasses 3.
no

Given the entry `K11H` , answer whether its protein stability index meets or surpasses 3.
no

Given the entry `T10S` , answer whether its protein stability index meets or surpasses 3.
no

Given the entry `D13F` , answer whether its protein stability index meets or surpasses 3.
no

Given the entry `Q4D` , answer whether its protein stability index meets or surpasses 3.
yes

Given the entry `I12S` , answer whether its protein stability index meets or surpasses 3.
no

Given the entry `T10A` , answer whether its protein stability index meets or surpasses 3.
yes

Given the entry `N17Q` , answer whether its protein stability index meets or surpasses 3.
yes

Given the entry `W7Q` , answer whether its protein stability index meets or surpasses 3.
no

Given the entry `K19Y` , answer whether its protein stability index meets or surpasses 3.
no

Given the entry `K11S` , answer whether its protein stability index meets or surpasses 3.
no

Given the entry `L24G` , answer whether its protein stability index meets or surpasses 3.
yes

Given the entry `W7P` , answer whether its protein stability index meets or surpasses 3.
no

Given the entry `H14V` , answer whether its protein stability index meets or surpasses 3.
yes

Given the entry `H14M` , answer whether its protein stability index meets or surpasses 3.
no

Given the entry `I22L` , answer whether its protein stability index meets or surpasses 3.
yes

Given the entry `W7A` , answer whether its protein stability index meets or surpasses 3.
no

Given the entry `L23A` , answer whether its protein stability index meets or surpasses 3.
no

Given the entry `L23S` , answer whether its protein stability index meets or surpasses 3.
yes

Given the entry `L9R` , answer whether its protein stability index meets or surpasses 3.
no

Given the entry `E18L` , answer whether its protein stability index meets or surpasses 3.
yes
